# Tested on: RD (Rhabdomyosarcoma)
# measurement-protocol: combination Emax (second highest fraction inhibited in the dose matrix, 72 h); higher = more inhibition; extreme values may be limits of the assay
Listed below: combination Emax values for each entry.
// no unit, no text: just the number

The cases that follow already have their combination Emax on record.
>>> quantitative_result("COc1cccc(OCCCN)c1-c1cc(Nc2cnc(C#N)cn2)n[nH]1 [Prexasertib] + CCc1c2c(nc3ccc(O)cc13)-c1cc3c(c(=O)n1C2)COC(=O)[C@]3(O)CC [SN-38] (first compound max 1 µM, 7x7, partner max 0.3 µM)")
0.958
>>> quantitative_result("Cc1cc2ncnn2cc1Nc1ncc2c(n1)n(C1CCOCC1)c(=O)n2C [AZD7648] + CN(C)CCCOc1ccc(-c2ccc3ncc4c(c3c2)n(C2CCOCC2)c(=O)n4C)cn1 [AZD0156] (first compound max 10 µM, 7x7, partner max 1 µM)")
0.195
>>> quantitative_result("NC1(C(=O)N[C@@H](CCO)c2ccc(Cl)cc2)CCN(c2ncnc3[nH]ccc23)CC1 [Capivasertib] + Cn1cnc2c(F)c(Nc3ccc(Br)cc3Cl)c(C(=O)NOCCO)cc21 [Selumetinib] (first compound max 10 µM, 7x7, partner max 10 µM)")
0.633
>>> quantitative_result("COc1nnc2ccc(N3CCC(c4ccc(OCCN5CCN(C)C(=O)[C@H]5C)cc4)CC3)nn12 [AZD5153] + CCN(CCO)CCCOc1ccc2c(Nc3cc(CC(=O)Nc4cccc(F)c4)[nH]n3)ncnc2c1 [AZD2811] (first compound max 1 µM, 7x7, partner max 1 µM)")
0.605

query: Give recorded combination Emax. CC1(C)CCC(CN2CCN(c3ccc(C(=O)NS(=O)(=O)c4ccc(NCC5CCOCC5)c([N+](=O)[O-])c4)c(Oc4cnc5[nH]ccc5c4)c3)CC2)=C(c2ccc(Cl)cc2)C1 [Venetoclax] + CN(C)CCCOc1ccc(-c2ccc3ncc4c(c3c2)n(C2CCOCC2)c(=O)n4C)cn1 [AZD0156] (first compound max 1 µM, 7x7, partner max 1 µM)
result: 0.161

query: State its combination Emax for this molecule: COc1cccc(OCCCN)c1-c1cc(Nc2cnc(C#N)cn2)n[nH]1 [Prexasertib] + C=CCn1c(=O)c2cnc(Nc3ccc(N4CCN(C)CC4)cc3)nc2n1-c1cccc(C(C)(C)O)n1 [AZD1775] (first compound max 1 µM, partner max 1 µM)
result: 0.75

----------
Below, each entry is listed with its recorded Bliss excess.
# Tested on: COR-L279 (Small Cell Lung Carcinoma)
# measurement-protocol: Bliss excess, mean over the matrix (fraction); higher = more synergy
Give your answer as a number; write no unit.

Would you please look over these solved cases?
>>> quantitative_result("O=C(c1cc(Cc2n[nH]c(=O)c3ccccc23)ccc1F)N1CCN(C(=O)C2CC2)CC1 [Olaparib] + COc1nnc2ccc(N3CCC(c4ccc(OCCN5CCN(C)C(=O)[C@H]5C)cc4)CC3)nn12 [AZD5153] (first compound max 10 µM, 7x7, partner max 1 µM)")
0.0327
>>> quantitative_result("CS(=O)(=O)CCNCc1ccc(-c2ccc3ncnc(Nc4ccc(OCc5cccc(F)c5)c(Cl)c4)c3c2)o1 [Lapatinib] + Cn1cnc2c(F)c(Nc3ccc(Br)cc3Cl)c(C(=O)NOCCO)cc21 [Selumetinib] (first compound max 10 µM, 7x7, partner max 10 µM)")
-0.0224

query: # return recorded Bliss excess for input CC1(C)CCC(CN2CCN(c3ccc(C(=O)NS(=O)(=O)c4ccc(NCC5CCOCC5)c([N+](=O)[O-])c4)c(Oc4cnc5[nH]ccc5c4)c3)CC2)=C(c2ccc(Cl)cc2)C1 [Venetoclax] + C[C@@H]1COCCN1C2=NC(=NC(=C2)C3(CC3)[S@](=N)(=O)C)C4=C5C=CNC5=NC=C4 [AZD6738] (first compound max 1 µM, 7x7, partner max 10 µM)
result: 0.0287

----------
Bliss excess values by entry
# System: SUP-B15 (B-Lymphoblastic Leukemia)
# measurement-protocol: Bliss excess, mean over the matrix (fraction); higher = more synergy
Enter a number only.

>>> quantitative_result("Cc1c2c(nn1C)CSCc1cc(n(C)n1)CSc1cc(c3ccccc3c1)OCCCc1c(C(=O)O)n(C)c3c-2c(Cl)ccc13 [AZD5991] + C=CCn1c(=O)c2cnc(Nc3ccc(N4CCN(C)CC4)cc3)nc2n1-c1cccc(C(C)(C)O)n1 [AZD1775] (first compound max 1 µM, partner max 1 µM)")
0.0171

query: Find Bliss excess for Cc1c2c(nn1C)CSCc1cc(n(C)n1)CSc1cc(c3ccccc3c1)OCCCc1c(C(=O)O)n(C)c3c-2c(Cl)ccc13 [AZD5991] + Cc1cc2ncnn2cc1Nc1ncc2c(n1)n(C1CCOCC1)c(=O)n2C [AZD7648] (first compound max 1 µM, 7x7, partner max 10 µM) on SUP-B15 (B-Lymphoblastic Leukemia) and write it down.
result: 0.0099

query: Tell me Bliss excess of CN(C)CCCOc1ccc(-c2ccc3ncc4c(c3c2)n(C2CCOCC2)c(=O)n4C)cn1 [AZD0156] + C=CCn1c(=O)c2cnc(Nc3ccc(N4CCN(C)CC4)cc3)nc2n1-c1cccc(C(C)(C)O)n1 [AZD1775] (first compound max 1 µM, partner max 1 µM) when tested on SUP-B15 (B-Lymphoblastic Leukemia).
result: 0.0282

query: Provide Bliss excess, tested on SUP-B15 (B-Lymphoblastic Leukemia), for CC(=O)c1c(C)c2cnc(Nc3ccc(N4CCNCC4)cn3)nc2n(C2CCCC2)c1=O [Palbociclib] + CC1(C)CCC(CN2CCN(c3ccc(C(=O)NS(=O)(=O)c4ccc(NCC5CCOCC5)c([N+](=O)[O-])c4)c(Oc4cnc5[nH]ccc5c4)c3)CC2)=C(c2ccc(Cl)cc2)C1 [Venetoclax] (first compound max 10 µM, 7x7, partner max 1 µM) .
result: -0.0176

query: Specify the recorded Bliss excess for NC1(C(=O)N[C@@H](CCO)c2ccc(Cl)cc2)CCN(c2ncnc3[nH]ccc23)CC1 [Capivasertib] + CC(=O)c1c(C)c2cnc(Nc3ccc(N4CCNCC4)cn3)nc2n(C2CCCC2)c1=O [Palbociclib] (first compound max 10 µM, 7x7, partner max 10 µM) , system: SUP-B15 (B-Lymphoblastic Leukemia).
result: -0.007

query: Report Bliss excess on SUP-B15 (B-Lymphoblastic Leukemia) for this entry: COc1cc2ncnc(Nc3ccc(F)c(Cl)c3)c2cc1OCCCN1CCOCC1 [Gefitinib] + CC(C)n1c(=O)n(C)c2cnc3cc(F)c(-c4ccc(OCCCN5CCCCC5)nc4)cc3c21 [AZD1390] (first compound max 10 µM, 7x7, partner max 0.3 µM)
result: -0.0673

query: Give SUP-B15 (B-Lymphoblastic Leukemia) Bliss excess for the following molecule: CC1(C)CCC(CN2CCN(c3ccc(C(=O)NS(=O)(=O)c4ccc(NCC5CCOCC5)c([N+](=O)[O-])c4)c(Oc4cnc5[nH]ccc5c4)c3)CC2)=C(c2ccc(Cl)cc2)C1 [Venetoclax] + Cn1cnc2c(F)c(Nc3ccc(Br)cc3Cl)c(C(=O)NOCCO)cc21 [Selumetinib] (first compound max 1 µM, 7x7, partner max 3 µM)
result: 0.108

----------
# System: T-T (Esophageal Squamous Cell Carcinoma)
# measurement-protocol: combination Emax (second highest fraction inhibited in the dose matrix, 72 h); higher = more inhibition; extreme values may be limits of the assay
The threshold is inclusive: combination Emax of exactly 0.6 counts as True; values below receive False.

Reference set (5 entries):
>>> class_label("COc1cccc(OCCCN)c1-c1cc(Nc2cnc(C#N)cn2)n[nH]1 [Prexasertib] + O=C(c1cc(Cc2n[nH]c(=O)c3ccccc23)ccc1F)N1CCN(C(=O)C2CC2)CC1 [Olaparib] (first compound max 1 µM, 7x7, partner max 10 µM)")
"True"
>>> class_label("CCc1c2c(nc3ccc(O)cc13)-c1cc3c(c(=O)n1C2)COC(=O)[C@]3(O)CC [SN-38] + CN(C)CCCOc1ccc(-c2ccc3ncc4c(c3c2)n(C2CCOCC2)c(=O)n4C)cn1 [AZD0156] (first compound max 0.3 µM, 7x7, partner max 1 µM)")
"True"
>>> class_label("CC(=O)c1c(C)c2cnc(Nc3ccc(N4CCNCC4)cn3)nc2n(C2CCCC2)c1=O [Palbociclib] + Cc1c2c(nn1C)CSCc1cc(n(C)n1)CSc1cc(c3ccccc3c1)OCCCc1c(C(=O)O)n(C)c3c-2c(Cl)ccc13 [AZD5991] (first compound max 10 µM, 7x7, partner max 1 µM)")
"True"
>>> class_label("C[C@@H](Nc1cc(F)cc(F)c1)c1cc(C(=O)N(C)C)cc2c(=O)cc(N3CCOCC3)oc12 [AZD8186] + CC(=O)c1c(C)c2cnc(Nc3ccc(N4CCNCC4)cn3)nc2n(C2CCCC2)c1=O [Palbociclib] (first compound max 10 µM, 7x7, partner max 10 µM)")
"False"
>>> class_label("O=C(c1cc(Cc2n[nH]c(=O)c3ccccc23)ccc1F)N1CCN(C(=O)C2CC2)CC1 [Olaparib] + COc1nnc2ccc(N3CCC(c4ccc(OCCN5CCN(C)C(=O)[C@H]5C)cc4)CC3)nn12 [AZD5153] (first compound max 10 µM, 7x7, partner max 1 µM)")
"False"

Field: next compound
query: Is combination Emax for CN(CCO)CC[C@H](CSc1ccccc1)Nc1ccc(S(=O)(=O)NC(=O)c2ccc(N3CCC([C@@H](O)c4ccccc4-c4ccc(Cl)cc4)CC3)cc2)cc1S(=O)(=O)C(F)(F)F [AZD4320] + C[C@@H]1COCCN1C2=NC(=NC(=C2)C3(CC3)[S@](=N)(=O)C)C4=C5C=CNC5=NC=C4 [AZD6738] (first compound max 1 µM, 7x7, partner max 10 µM) at or above 0.6?
result: False

Reference source: the supplement of paper PMC11061612
